measured_on: UL97 D456A (Human cytomegalovirus, UniProt Q68101, D456A)
Construct: PCR reaction to generate the full length UL97; honey bee melittin secretion signal (N); made in house; host or cells: Sf21 insect cells, recombinant baculovirus (pMelBac C)
protocol_summary: UL97 autophosphorylation protein kinase assay, D456A
Type: biochemical
settings: D456A mutant
endpoint: IC50 (nM)
Give the quantity in nM, number only.

Q: Name the reported IC50 value associated with the compound CC(C)Nc1nc2cc(Cl)c(Cl)cc2n1[C@H]1O[C@@H](CO)[C@H](O)[C@@H]1O [maribavir]
Result: 34

----------
measured_on: UL97 L595F (Human cytomegalovirus, UniProt Q68101, L595F)
Construct: PCR reaction to generate the full length UL97; honey bee melittin secretion signal (N)
protocol_summary: UL97 autophosphorylation protein kinase assay, L595F
settings: L595F mutant
endpoint: IC50 (nM)
Please reply with the bare figure in nM and do not write the unit itself.

Q: Returns the measured IC50 for the input molecule. Input: "CC(C)Nc1nc2cc(Cl)c(Cl)cc2n1[C@H]1O[C@@H](CO)[C@H](O)[C@@H]1O"
Result: 28
